Listed here: items and their measured pIC50.
Molecular target: human EHMT2 913-1193 (Homo sapiens, UniProt Q96KQ7)
Sequence (Q96KQ7 913-1193): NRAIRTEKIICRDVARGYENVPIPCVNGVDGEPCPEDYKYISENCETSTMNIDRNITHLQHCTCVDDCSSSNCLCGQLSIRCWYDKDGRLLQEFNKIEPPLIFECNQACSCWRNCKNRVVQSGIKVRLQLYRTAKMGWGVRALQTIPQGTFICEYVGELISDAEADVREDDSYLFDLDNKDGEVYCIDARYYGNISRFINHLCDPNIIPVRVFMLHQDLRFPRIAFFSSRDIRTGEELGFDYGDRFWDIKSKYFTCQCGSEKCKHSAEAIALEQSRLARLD
Assay: EHMT2 enzyme assay on histone peptide substrate (3H-SAM SPA)
Conditions: EHMT2 IC50, recombinant human EHMT2 913-1193, histone peptide substrate
pIC50: −log10 of the molar value.

>>> value("[2H]Cc1cc(NC([2H])([2H])[2H])nc(Nc2cc3c(c(C4=CCN(C)CCC4)c2)OCCC3)n1")
"> 7.00"
>>> value("CNc1cc(C)nc(Nc2cc(OCCCN3CCCC3)c3occc3c2)n1")
"5.70 to 6.30"
>>> value("CNc1cc(C)nc(Nc2cc3c(c(C4=CCNCCC4)c2Cl)OCC3)n1")
"> 7.00"
>>> value("[2H]Cc1cc(NC)nc(Nc2cc3c(c(C4=CCNCCC4)c2)OCCO3)n1")
"> 7.00"
>>> value("CNc1cc(C)nc(Nc2cc3c(c(C4=CCN(C)CC(O)C4)c2C)OCCC3)n1 (single isomer, unassigned) [Compound 418]")
"6.30 to 7.00"
>>> value("[2H]Cc1cc(NC)nc(Nc2cc3c(c(C4=CCNCCC4)c2)OCO3)n1")
"> 7.00"

### Prompt I'd like to know its pIC50. The compound in question is CNc1cc(C)nc(Nc2cc3c(c(C4=CCNCCC4)c2O)OCC3)n1
### Response 6.30 to 7.00

### Prompt I'd like to know its pIC50. The compound in question is [2H]Cc1cc(NC)nc(Nc2cc3c(c(C4=CCN(C)CCC4)c2)OCO3)n1
### Response > 7.00

###

Biological target: human EHMT2 913-1193 (Homo sapiens, UniProt Q96KQ7)
Experiment: EHMT2 enzyme assay on histone peptide substrate (3H-SAM SPA)
Conditions: EHMT2 IC50, recombinant human EHMT2 913-1193, histone peptide substrate
readout_type: IC50

>>> value("CNc1cc(C)nc(Nc2cc3c(c(C4=CCNC[C@@H](O)C4)c2F)OC[C@@H]3C)n1 (stereo in doubt)")
"< 100 nM"
>>> value("CCNc1nc(Nc2cc3c(c(C4=CCNCCC4)c2F)OCC3)nc(C)c1F")
"100 to 500 nM"
>>> value("CNc1cc(C)nc(Nc2cc3c(c(C4=CCN(C)CC(O)C4)c2C)OCC3)n1 (single isomer, unassigned) [Compound 379]")
"< 100 nM"
>>> value("CNc1cc(C)nc(Nc2cc3c(c(C4=CCNCCC4)c2)OCO3)n1")
"< 100 nM"
>>> value("CNc1cc(C)nc(Nc2cc3c(c(C4=C[C@H](C)NCCC4)c2F)OCC3)n1")
"100 to 500 nM"
>>> value("[2H]C([2H])([2H])Nc1cc(C)nc(Nc2cc3c(c(C4=CCNCCC4)c2)OCO3)n1")
"< 100 nM"
>>> value("CNc1cc(C)nc(Nc2cc3c(c([C@H]4CC[C@H](N)CC4)c2)OCCO3)n1")
"> 2000 nM"
>>> value("CNc1cc(C(C)C)nc(Nc2cc3c(c(C4=CCN(C)CCC4)c2)OCC3)n1")
"100 to 500 nM"
>>> value("CNc1cc(C)nc(Nc2cc3c(c(C4=CCNCCC4)c2)OCCO3)n1")
"< 100 nM"
>>> value("CNc1cc(C)nc(Nc2cc3c(c(C4=CCNCCC4)c2F)OCC32CC2)n1")
"< 100 nM"

### Prompt Write down the reported IC50 of [2H]Cc1nc(Nc2cc3c(c(C4=CCNCCC4)c2)OCC3)nc(NC)c1F , test system: human EHMT2 913-1193 (Homo sapiens, UniProt Q96KQ7).
### Response 100 to 500 nM

### Prompt Write down the reported IC50 of [2H]Cc1cc(NC)nc(Nc2cc3c(c(C4=CCN(C)CCC4)c2)OCCO3)n1 , test system: human EHMT2 913-1193 (Homo sapiens, UniProt Q96KQ7).
### Response 100 to 500 nM

### Prompt Write down the reported IC50 of CNc1cc(C)nc(Nc2cc3c(c(C4=CCNCC(O)C4)c2C)OCCC3)n1 (single isomer, unassigned) [Compound 355] , test system: human EHMT2 913-1193 (Homo sapiens, UniProt Q96KQ7).
### Response < 100 nM

### Prompt Write down the reported IC50 of CCc1cc(NC)nc(Nc2cc3c(c(C4=CCN(C)CCC4)c2)OCC3)n1 , test system: human EHMT2 913-1193 (Homo sapiens, UniProt Q96KQ7).
### Response 100 to 500 nM

### Prompt Write down the reported IC50 of [2H]Cc1nc(Nc2cc3c(c(C4=CCN(C)CCC4)c2)OCC3)nc(NC)c1F , test system: human EHMT2 913-1193 (Homo sapiens, UniProt Q96KQ7).
### Response 500 to 2000 nM

### Prompt Write down the reported IC50 of CNc1cc(C)nc(Nc2cc3c(c(C4=CCN(C)CCC4)c2)OC(F)(F)O3)n1 , test system: human EHMT2 913-1193 (Homo sapiens, UniProt Q96KQ7).
### Response 100 to 500 nM

### Prompt Write down the reported IC50 of CNc1cc(Nc2cc3c(c(C4=CCN(C)CCC4)c2F)OCC3)nc(C)c1F , test system: human EHMT2 913-1193 (Homo sapiens, UniProt Q96KQ7).
### Response < 100 nM
